molecular target: δ opioid receptors (Mus musculus, UniProt P32300); construct: Bioassays Using Isolated Organ Preparations; from tissue; host or cells: mouse vas deferens (isolated organ); experiment: Mouse vas deferens (MVD) bioassay, antagonism of electrically evoked contraction inhibition by δ-selective agonists; type: tissue-based; conditions: Ke (nM) against [Leu5]Enkephalin, MVD assay; δ agonist [Leu5]enkephalin; means of 3-8 determinations
Sequence (P32300 whole entry): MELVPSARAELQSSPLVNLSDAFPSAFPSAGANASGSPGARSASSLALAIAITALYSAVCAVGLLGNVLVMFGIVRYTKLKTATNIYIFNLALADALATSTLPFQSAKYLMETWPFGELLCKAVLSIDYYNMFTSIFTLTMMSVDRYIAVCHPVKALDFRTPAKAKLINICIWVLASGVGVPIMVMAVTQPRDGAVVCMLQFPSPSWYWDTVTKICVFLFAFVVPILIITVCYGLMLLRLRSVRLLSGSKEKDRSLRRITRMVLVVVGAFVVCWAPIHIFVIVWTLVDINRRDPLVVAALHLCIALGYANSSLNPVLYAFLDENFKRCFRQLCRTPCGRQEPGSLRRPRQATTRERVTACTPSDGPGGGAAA
Peptide text beside a SMILES is read from it.
Catalogue of Kb values
measured property: Kb (nM)

• Cc1cc(O)cc(C)c1C[C@H](N)C(=O)N1Cc2ccccc2C[C@H]1CN[C@@H](Cc1ccccc1)C(=O)N[C@@H](Cc1ccccc1)C(=O)O [HDmtTic.psi.[CH2NH]PhePheOH, H-Dmt-Tic.PSI.[CH2 --NH]Phe-Phe-OH] = 0.259
• Cc1cc(O)cc(C)c1C[C@H](N)C(=O)N1Cc2ccccc2C[C@H]1CN[C@@H](Cc1ccccc1)C(=O)N[C@@H](Cc1ccccc1)C(N)=O [HDmtTic.psi.[CH2NH]PhePheNH2, H-Dmt-Tic.PSI.[CH2 --NH]Phe-Phe-NH2] = 0.47
• NC(=O)[C@H](CO)NC(=O)[C@@H]1CCCN1C(=O)[C@H](Cc1ccc(O)cc1)NC(=O)[C@H](Cc1ccccc1)NC(=O)[C@H](Cc1ccccc1)NC(=O)[C@@H]1Cc2ccccc2CN1C(=O)[C@@H](N)Cc1ccc(O)cc1 [HTyrTicPhePheTyrProSerNH2, H-Tyr-Tic-Phe-Phe-Tyr-Pro-Ser-NH2] (HELM PEPTIDE1{Y.[Tic].F.F.Y.P.S.[am]}$$$$V2.0) = 4.78
• CCN(CC)[C@@H](Cc1ccc(O)cc1)C(=O)N1Cc2ccccc2C[C@H]1C(=O)N[C@@H](Cc1ccccc1)C(=O)N[C@@H](Cc1ccccc1)C(=O)O = 3.39
